- Tested on: Fibroblast
- Procedure Details: Multiplex assay against human fibroblast
- Format: toxicity, cell-based
- Experimental Setup: 24 h, 1 µM, compound concentration 1 uM, replicate 2
Result Type: Population Mitochondria Different-Phenotype (%)
Entry rule: numbers only, all in %.

Item COc1cc2ncn(-c3cc(OCc4ccccc4C(F)(F)F)c(C(N)=O)s3)c2cc1OC [GW843682X] has what recorded Population Mitochondria Different-Phenotype (%)? 19

Item "CC(C)Oc1ccccc1C(=O)Nc1ccccc1C(=O)Nc1cccc(S(=O)(=O)C(F)(F)F)c1" has what recorded Population Mitochondria Different-Phenotype (%)? 58

Item "O=c1cc(N2CCOCC2)oc2c(-c3cccc4c3sc3ccccc34)cccc12" has what recorded Population Mitochondria Different-Phenotype (%)? 9

Item CC1=C(C(=O)Nc2cc3cn[nH]c3cc2F)C(c2ccc(C(F)(F)F)cc2)CC(=O)N1 (stereo unspecified) has what recorded Population Mitochondria Different-Phenotype (%)? 13

Item "CCCSc1nc(N[C@@H]2C[C@H]2c2ccc(F)c(F)c2)c2nnn([C@@H]3C[C@H](OCCO)[C@@H](O)[C@H]3O)c2n1" has what recorded Population Mitochondria Different-Phenotype (%)? 20

Item CCc1nn(CCCN2CCN(c3cccc(Cl)c3)CC2)c(=O)n1CCOc1ccccc1.Cl [NEFAZODONE HYDROCHLORIDE] has what recorded Population Mitochondria Different-Phenotype (%)? 15

Item "CN1CCN(Cc2ccc(Nc3ncc(Cl)c(Nc4ccccc4S(=O)(=O)N(C)C)n3)cc2)CC1" has what recorded Population Mitochondria Different-Phenotype (%)? 36

Item Cc1ccc2c(c1)c1c(n2CCc2ccc(C)nc2)CCN(C)C1 [LATREPIRDINE] has what recorded Population Mitochondria Different-Phenotype (%)? 27

Item "CNC(=O)Nc1ccc(-c2nc(N3CC4CCC(C3)O4)c3cnn(C4CCC5(CC4)OCCO5)c3n2)cc1" has what recorded Population Mitochondria Different-Phenotype (%)? 6

Item "Cc1nc(N2CC[C@H](O)C2)ncc1-c1cc(C(F)(F)F)cc2[nH]ncc12" has what recorded Population Mitochondria Different-Phenotype (%)? 7

Item "CC(C)c1noc(N2CCC(COc3ccc(-c4ccc(S(C)(=O)=O)cc4)nc3)CC2)n1" has what recorded Population Mitochondria Different-Phenotype (%)? 10

Item "C=CC(=O)Nc1ccc2[nH]c(=O)n(C3CCN(Cc4ccc(-c5nc6cc[nH]c(=O)c6cc5-c5ccccc5)cc4)CC3)c2c1" has what recorded Population Mitochondria Different-Phenotype (%)? 10

Item "CNC(=O)Nc1ccc2c(c1)[C@@]1(CC2)OC(=O)N(CC(=O)N(Cc2ccc(F)cc2)[C@@H](C)C(F)(F)F)C1=O" has what recorded Population Mitochondria Different-Phenotype (%)? 16

Item "CC(C)NC(=O)N1CC[C@H](NC2=Nc3cc(F)ccc3N(CC(F)F)c3ccc(Cl)cc32)C1" has what recorded Population Mitochondria Different-Phenotype (%)? 19

Item O=C(c1cc2c(cc1F)OC(c1ccc(F)cc1)(c1ccc(Cl)cc1Cl)O2)N1CCOCC1 (stereo unspecified) has what recorded Population Mitochondria Different-Phenotype (%)? 15

Item "COC(=O)C1=C(C)NC(C)=C(C(=O)OCCCN2CCC(c3ccccc3)(c3ccccc3)CC2)[C@H]1c1cccc([N+](=O)[O-])c1" has what recorded Population Mitochondria Different-Phenotype (%)? 100

----------
- System: U2OS
- Procedure Details: Multiplex assay against U2OS
- Format: toxicity, cell-based
- Experimental Setup: human, 48 h, 1 µM, compound concentration 1 uM, replicate 2
Result Type: Population Membrane Permeable-Phenotype (%)
Entry rule: numbers only, all in %.

Item "CC(C)c1noc(N2CCC(COc3ccc(-c4ccc(S(C)(=O)=O)cc4)nc3)CC2)n1" has what recorded Population Membrane Permeable-Phenotype (%)? 4

Item "O=c1cc(N2CCOCC2)oc2c(-c3cccc4c3sc3ccccc34)cccc12" has what recorded Population Membrane Permeable-Phenotype (%)? 12

Item "COc1ccc(-c2ccc3ncc4c(c3c2)n(-c2ccc(N3CCNCC3)c(C(F)(F)F)c2)c(=O)n4C)cn1.O=C(O)/C=C\C(=O)O" has what recorded Population Membrane Permeable-Phenotype (%)? 90

Item "CC(C)OC(=O)N1CCC(Oc2ncnc3c2cnn3-c2ccc(S(C)(=O)=O)cc2F)CC1" has what recorded Population Membrane Permeable-Phenotype (%)? 7

----------
Give Total Cell Count for every item shown.
- Tested on: HEK-293T
- Procedure Details: Multiplex assay against HEK293T
- Format: toxicity, cell-based
- Experimental Setup: human, 12 h, 1 µM, compound concentration 1 uM, replicate 1
// print number alone

Item CC1=C(C(=O)Nc2cc3cn[nH]c3cc2F)C(c2ccc(C(F)(F)F)cc2)CC(=O)N1 (centres undefined) has what recorded Total Cell Count? 402

Item "CC(C)OC(=O)N1CCC(Oc2ncnc3c2cnn3-c2ccc(S(C)(=O)=O)cc2F)CC1" has what recorded Total Cell Count? 225

Item "CC(C)(C)NC[C@H](O)COc1nsnc1N1CCOCC1" has what recorded Total Cell Count? 281

Item "CCOC(=O)Nc1cc(-c2ccc(C)c(NS(C)(=O)=O)c2)nn2c(C)nnc12" has what recorded Total Cell Count? 561

Item "C=CC(=O)Nc1ccc2[nH]c(=O)n(C3CCN(Cc4ccc(-c5nc6cc[nH]c(=O)c6cc5-c5ccccc5)cc4)CC3)c2c1" has what recorded Total Cell Count? 656

Item Cc1cccc(CN2CCN(C(c3ccccc3)c3ccc(Cl)cc3)CC2)c1.Cl.Cl (centres undefined) has what recorded Total Cell Count? 198

Item "CN1CCN(Cc2ccc(Nc3ncc(Cl)c(Nc4ccccc4S(=O)(=O)N(C)C)n3)cc2)CC1" has what recorded Total Cell Count? 297

Item Cc1ccccc1C(c1ccccc1C)N1C2CCC1CC(O)(c1ccccc1)C2 (centres undefined) has what recorded Total Cell Count? 233

Item "CCc1ccc(OCc2ccccc2C(=O)Nc2ccc3nc(C)cc(N)c3c2)cc1.Cl" has what recorded Total Cell Count? 156

----------
- Test system: HEK-293T
- Procedure Details: Multiplex assay against HEK293T
- Type: toxicity, cell-based
- Experimental Setup: human, 12 h, 1 µM, compound concentration 1 uM, replicate 2
Labels assigned by Population Membrane Permeable-Phenotype (%) range: lo: < 5%; mid: ≥ 5% and < 9%; hi: ≥ 9%

Place this molecule in its band: O=C(c1cc2c(cc1F)OC(c1ccc(F)cc1)(c1ccc(Cl)cc1Cl)O2)N1CCOCC1 (configuration not stated) lo

Place this molecule in its band: COc1ccc(-c2ccc3ncc4c(c3c2)n(-c2ccc(N3CCNCC3)c(C(F)(F)F)c2)c(=O)n4C)cn1.O=C(O)/C=C\C(=O)O [BGT-226] lo

Place this molecule in its band: C[C@]12CC[C@@H]3c4ccc(O)cc4CC[C@H]3[C@@H]1CC[C@@H]2O [ESTRADIOL] lo

Place this molecule in its band: "C=CC(=O)Nc1cccc(Sc2nc(Nc3ccc(N4CCN(C)CC4)cc3)ncc2Cl)c1" mid

Place this molecule in its band: C=CC(=O)Nc1ccc2[nH]c(=O)n(C3CCN(Cc4ccc(-c5nc6cc[nH]c(=O)c6cc5-c5ccccc5)cc4)CC3)c2c1 [Borussertib] lo

Place this molecule in its band: CC(C)c1noc(N2CCC(COc3ccc(-c4ccc(S(C)(=O)=O)cc4)nc3)CC2)n1 [GSK-1292263] mid

Place this molecule in its band: "CCOC(=O)Nc1cc(-c2ccc(C)c(NS(C)(=O)=O)c2)nn2c(C)nnc12" lo

Place this molecule in its band: CC1=C(C(=O)Nc2cc3cn[nH]c3cc2F)C(c2ccc(C(F)(F)F)cc2)CC(=O)N1 (configuration not stated) hi

Place this molecule in its band: CC(C)(C)NC[C@H](O)COc1nsnc1N1CCOCC1 [TIMOLOL] mid

Place this molecule in its band: CCCSc1nc(N[C@@H]2C[C@H]2c2ccc(F)c(F)c2)c2nnn([C@@H]3C[C@H](OCCO)[C@@H](O)[C@H]3O)c2n1 [TICAGRELOR] hi

Place this molecule in its band: "CC(C)Oc1ccccc1C(=O)Nc1ccccc1C(=O)Nc1cccc(S(=O)(=O)C(F)(F)F)c1" mid

Place this molecule in its band: Cc1ccc2c(c1)c1c(n2CCc2ccc(C)nc2)CCN(C)C1 [LATREPIRDINE] mid

Place this molecule in its band: COc1cc2ncn(-c3cc(OCc4ccccc4C(F)(F)F)c(C(N)=O)s3)c2cc1OC [GW843682X] hi

Place this molecule in its band: "C=CC(=O)Nc1cccc(Oc2nc(Nc3ccc(N4CCN(C)CC4)cc3OC)ncc2Cl)c1" hi

Place this molecule in its band: "COc1cc(Nc2nccc(-c3cnn4nc(OC)ccc34)n2)cc(C(F)(F)F)c1" hi

----------
- Test system: Fibroblast
- Procedure Details: Multiplex assay against human fibroblast
- Type: toxicity, cell-based
- Experimental Setup: 24 h, 1 µM, compound concentration 1 uM, replicate 1
Result Type: Total Cell Count
// print number alone

Item "CCc1ccc(OCc2ccccc2C(=O)Nc2ccc3nc(C)cc(N)c3c2)cc1.Cl" has what recorded Total Cell Count? 158

Item Cc1c[nH]c2nccc(Oc3c(F)cc(Nc4cc(Cl)nc(N)n4)cc3F)c12 [BAY-549] has what recorded Total Cell Count? 170

Item "C=CC(=O)Nc1cccc(Sc2nc(Nc3ccc(N4CCN(C)CC4)cc3)ncc2Cl)c1" has what recorded Total Cell Count? 126

Item COC(=O)C1=C(C)NC(C)=C(C(=O)OCCCN2CCC(c3ccccc3)(c3ccccc3)CC2)[C@H]1c1cccc([N+](=O)[O-])c1 [NIGULDIPINE] has what recorded Total Cell Count? 117

Item "CNC(=O)Nc1ccc(-c2nc(N3CC4CCC(C3)O4)c3cnn(C4CCC5(CC4)OCCO5)c3n2)cc1" has what recorded Total Cell Count? 74

Item "CCOC(=O)Nc1cc(-c2ccc(C)c(NS(C)(=O)=O)c2)nn2c(C)nnc12" has what recorded Total Cell Count? 186

Item "Cc1nc(N2CC[C@H](O)C2)ncc1-c1cc(C(F)(F)F)cc2[nH]ncc12" has what recorded Total Cell Count? 183

Item CCCSc1nc(N[C@@H]2C[C@H]2c2ccc(F)c(F)c2)c2nnn([C@@H]3C[C@H](OCCO)[C@@H](O)[C@H]3O)c2n1 [TICAGRELOR] has what recorded Total Cell Count? 172

Item O=C(c1cc2c(cc1F)OC(c1ccc(F)cc1)(c1ccc(Cl)cc1Cl)O2)N1CCOCC1 (configuration not stated) has what recorded Total Cell Count? 108

Item "CC(C)Oc1ccccc1C(=O)Nc1ccccc1C(=O)Nc1cccc(S(=O)(=O)C(F)(F)F)c1" has what recorded Total Cell Count? 168

Item "C=CC(=O)Nc1cccc(Oc2nc(Nc3ccc(N4CCN(C)CC4)cc3OC)ncc2Cl)c1" has what recorded Total Cell Count? 265

Item "Cl.O=C(O)c1cc(-c2ccc(C3CCNCC3)cc2)c2ccc(-c3ccc(C(F)(F)F)cc3)cc2c1" has what recorded Total Cell Count? 73

Item "Cc1ccc(C)c(Oc2ccncc2C(=O)N2CCN(C3CC3)c3ccccc32)c1" has what recorded Total Cell Count? 88

Item "CC(C)NC(=O)N1CC[C@H](NC2=Nc3cc(F)ccc3N(CC(F)F)c3ccc(Cl)cc32)C1" has what recorded Total Cell Count? 84

Item CN1CCN(Cc2ccc(Nc3ncc(Cl)c(Nc4ccccc4S(=O)(=O)N(C)C)n3)cc2)CC1 [DUBERMATINIB] has what recorded Total Cell Count? 137

Item CC(C)CC(=O)Nc1[nH]nc2c1CN(C(=O)C1CCN(C)CC1)C2(C)C [PHA-793887] has what recorded Total Cell Count? 225

Item COc1cc2ncn(-c3cc(OCc4ccccc4C(F)(F)F)c(C(N)=O)s3)c2cc1OC [GW843682X] has what recorded Total Cell Count? 139
